soluble fraction (log2) for assorted sequences
Assay: soluble fraction after stress (log2 fold change); higher = more stays soluble; pooled small domains, quantitative proteomics
Conditions: stress: 50 degC

Take a look at these entries with their results.
INSERT INTO measurements (ordered_residues, measurement_label, recorded_result) VALUES
  ('HMPQVALAIDEMKRELASPDIVKTLLATTFKGLSEVNMRQAMLDGMIQGHTIADFFKKDVYAIPFGSGYSL', 'soluble fraction (log2)', 0.0921),
  ('HMLSDLTPGDLVVHATHGIGRFLGIRKLELEGMTKDYITIQYRGNENLYVPVTQMDLVSRYI', 'soluble fraction (log2)', -0.292),
  ('HMGLNEGLNEGQQKVIQHIQENEGIKVKEISLKLNMPIDTVDRHIRVLKNLNLIERRGSRKTGGYFISN', 'soluble fraction (log2)', -0.266);

Attention now shifts to the item below.
Quick check: soluble fraction (log2) of HMQRYFLEEAYQPSEKFELSAEAFHHIVHVMRMKPKDRVYLAFSDQQVIIAEITEITEEKVYLTEIEKEE ? -0.0978
